- Test Protocol: Cmax in rat at 1 mg/kg, po by LC-MS method
- Type: ADME, organism-based
- Set-up: dose 1 mg/kg, route oral
- Experimental Context: in vivo
Parameter Measured: Cmax (ng/mL)
Dear colleague, please return just the value in ng/mL, with no unit written.

Name the recorded Cmax of the molecule listed here: "Cc1cc(-c2nc(-c3ccncc3)n[nH]2)ccn1"
1240

* * *

- Tested System: Xanthine dehydrogenase/oxidase (Bos taurus, UniProt P80457)
- Sequence (P80457 whole entry): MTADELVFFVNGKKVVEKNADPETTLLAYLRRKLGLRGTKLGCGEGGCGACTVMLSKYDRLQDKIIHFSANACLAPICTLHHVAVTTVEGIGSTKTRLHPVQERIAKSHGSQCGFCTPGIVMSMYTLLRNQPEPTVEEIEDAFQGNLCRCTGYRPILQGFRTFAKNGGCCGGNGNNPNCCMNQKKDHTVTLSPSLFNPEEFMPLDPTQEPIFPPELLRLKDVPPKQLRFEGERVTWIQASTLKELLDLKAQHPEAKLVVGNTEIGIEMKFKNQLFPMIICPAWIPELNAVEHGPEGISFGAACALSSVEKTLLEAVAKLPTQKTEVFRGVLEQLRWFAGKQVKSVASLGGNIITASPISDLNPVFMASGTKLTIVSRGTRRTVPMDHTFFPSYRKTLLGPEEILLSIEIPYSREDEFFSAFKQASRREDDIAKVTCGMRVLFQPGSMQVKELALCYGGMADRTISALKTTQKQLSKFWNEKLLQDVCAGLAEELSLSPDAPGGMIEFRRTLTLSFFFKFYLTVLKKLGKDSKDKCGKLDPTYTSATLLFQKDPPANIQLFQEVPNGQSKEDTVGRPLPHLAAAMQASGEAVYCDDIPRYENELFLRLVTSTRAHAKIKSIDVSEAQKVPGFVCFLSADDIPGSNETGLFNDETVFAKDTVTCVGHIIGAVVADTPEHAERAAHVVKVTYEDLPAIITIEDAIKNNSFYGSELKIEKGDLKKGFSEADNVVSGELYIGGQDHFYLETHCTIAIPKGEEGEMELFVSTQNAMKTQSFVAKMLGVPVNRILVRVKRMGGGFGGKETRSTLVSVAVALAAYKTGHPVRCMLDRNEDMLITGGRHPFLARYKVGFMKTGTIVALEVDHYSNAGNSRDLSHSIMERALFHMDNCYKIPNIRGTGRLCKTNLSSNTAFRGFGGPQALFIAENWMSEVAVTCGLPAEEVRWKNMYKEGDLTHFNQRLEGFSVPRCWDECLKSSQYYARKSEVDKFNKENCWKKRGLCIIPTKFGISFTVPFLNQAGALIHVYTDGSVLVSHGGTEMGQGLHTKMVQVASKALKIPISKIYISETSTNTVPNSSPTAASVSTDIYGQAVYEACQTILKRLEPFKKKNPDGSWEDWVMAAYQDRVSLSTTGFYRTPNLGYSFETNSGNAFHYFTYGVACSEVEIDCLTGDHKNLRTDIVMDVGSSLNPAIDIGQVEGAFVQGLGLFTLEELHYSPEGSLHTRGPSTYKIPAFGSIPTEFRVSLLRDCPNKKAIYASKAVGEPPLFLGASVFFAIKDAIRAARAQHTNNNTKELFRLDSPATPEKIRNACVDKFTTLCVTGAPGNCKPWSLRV
pIC50: −log10 of the molar value.
Binary call on pIC50: 1 (yes) from 8 upward, 0 (no) beneath that.

CSc1cc(-c2nc(-c3ccnc(C)c3)n[nH]2)ccn1	0 (no)
Cc1cc(-c2nc(-c3ccncc3)n[nH]2)ccn1	0 (no)
Cc1cc(-c2n[nH]c(-c3ccnc(C#N)c3)n2)ccn1	0 (no)

Given "N#Cc1cc(-c2n[nH]c(-c3ccnc(C#N)c3)n2)ccn1" , state whether its pIC50 is at least 8.
0 (no)

Given "CC(C)COc1ccc(-c2n[nH]c(-c3ccncc3)n2)cn1" , state whether its pIC50 is at least 8.
0 (no)

Given "CC(C)COc1ccc(-c2n[nH]c(-c3ccncc3)n2)cc1[N+](=O)[O-]" , state whether its pIC50 is at least 8.
1 (yes)

Given "CC(C)COc1ccc(-c2n[nH]c(-c3ccncc3)n2)cc1C#N" , state whether its pIC50 is at least 8.
1 (yes)

* * *

Quick reference: inhibition at 10 µM of the listed items.
- Tested System: CYP3A4 (Homo sapiens, UniProt P08684)
- Sequence (P08684 whole entry): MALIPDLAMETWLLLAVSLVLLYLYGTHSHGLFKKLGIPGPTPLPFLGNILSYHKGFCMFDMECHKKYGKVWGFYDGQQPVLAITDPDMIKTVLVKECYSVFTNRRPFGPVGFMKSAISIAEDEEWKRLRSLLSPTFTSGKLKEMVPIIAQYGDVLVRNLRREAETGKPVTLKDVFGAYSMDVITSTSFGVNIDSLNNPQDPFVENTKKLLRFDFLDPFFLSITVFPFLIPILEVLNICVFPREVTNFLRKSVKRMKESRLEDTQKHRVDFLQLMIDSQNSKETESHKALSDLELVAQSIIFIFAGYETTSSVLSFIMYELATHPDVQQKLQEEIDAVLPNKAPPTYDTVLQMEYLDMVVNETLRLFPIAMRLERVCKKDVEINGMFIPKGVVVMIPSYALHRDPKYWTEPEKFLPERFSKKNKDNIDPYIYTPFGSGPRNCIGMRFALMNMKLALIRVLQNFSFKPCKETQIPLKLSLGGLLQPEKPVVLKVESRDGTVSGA
- Test Protocol: Inhibition of CYP3A4 in human liver microsomes assessed as inhibition of testosterone hydroxylation at 10 uM by HPLC analysis
- Assay type: ADME, Microsome
- Parameters: dose 10 uM
- Experimental Context: probe testosterone (hydroxylation)
Dear colleague, please return just the value in %, with no unit written.

c1cc(-c2n[nH]c(-c3ccncc3)n2)ccn1	18.5
c1ccc(-c2n[nH]c(-c3ccncc3)n2)nc1	20.3

Name the recorded inhibition at 10 µM of the compound listed here: "Clc1cc(-c2n[nH]c(-c3ccncc3)n2)ccn1"
54.1

Name the recorded inhibition at 10 µM of the compound listed here: "N#Cc1cc(-c2n[nH]c(-c3ccncc3)n2)ccn1"
18.6

Name the recorded inhibition at 10 µM of the compound listed here: "Fc1cc(-c2n[nH]c(-c3ccncc3)n2)ccn1"
40.2

Name the recorded inhibition at 10 µM of the compound listed here: "c1cncc(-c2n[nH]c(-c3ccncc3)n2)c1"
10.4

Name the recorded inhibition at 10 µM of the compound listed here: "Cc1cc(-c2n[nH]c(-c3ccnc(C#N)c3)n2)ccn1"
4.7

* * *

- Test Protocol: Half life in rat at 3 mg/kg, po by LC-MS method
- Format: ADME, organism-based
- Design: dose 3 mg/kg, route oral
- Experimental Context: in vivo
Parameter Measured: half-life
Give the value; after it, write the unit.

Name the recorded half-life of the compound listed here: "N#Cc1cc(-c2n[nH]c(-c3ccncc3)n2)ccn1"
19.7 h

* * *

- Test Protocol: Cmax in rat at 3 mg/kg, po by LC-MS method
- Format: ADME, organism-based
- Design: dose 3 mg/kg, route oral
- Experimental Context: in vivo
Quick reference: Cmax of the listed items.
Give the value; after it, write the unit.

Below: 4 compounds and their reported Cmax.
Cc1cc(-c2n[nH]c(-c3ccnc(OCC(C)C)c3)n2)ccn1	1440 ng/mL
N#Cc1cc(-c2n[nH]c(-c3ccnc(Cl)c3)n2)ccn1	5340 ng/mL
Cc1cc(-c2n[nH]c(-c3ccnc(C#N)c3)n2)ccn1	3970 ng/mL
Clc1cc(-c2n[nH]c(-c3ccncc3)n2)ccn1	4360 ng/mL

Field: next compound
Name the recorded Cmax of the compound listed here: "Cc1cc(-c2n[nH]c(-c3ccnc(Cl)c3)n2)ccn1"
4070 ng/mL
